protocol_details: Solubility of free C21 in aqueous vehicles (saturated solutions, HPLC)
Format: physicochemical
condition_context: PEG/H2O (25:75), pH 5.5, aqueous with cosolvent or surfactant or cyclodextrin, thermodynamic from solid, vehicle PEG/H2O (25:75); pH 5.5; read-out: Concentration (solubility)
quantity_measured: solubility at 48 h (µg/mL)
I only need the number, in µg/mL, no unit after it.

For CCCCOC(=O)NS(=O)(=O)c1sc(CC(C)C)cc1-c1ccc(Cn2ccnc2)cc1 [free C21] the molecule record lists solubility at 48 h as 170

---

protocol_details: Solubility of free C21 in aqueous vehicles (saturated solutions, HPLC)
Type: physicochemical
condition_context: PG/EtOH/H2O (40:10:50), pH 6.3, aqueous with cosolvent or surfactant or cyclodextrin, thermodynamic from solid, vehicle PG/EtOH/H2O (40:10:50); pH 6.3; read-out: Concentration (solubility)
quantity_measured: solubility at 48 h (µg/mL)
I only need the number, in µg/mL, no unit after it.

For CCCCOC(=O)NS(=O)(=O)c1sc(CC(C)C)cc1-c1ccc(Cn2ccnc2)cc1 [free C21] the molecule record lists solubility at 48 h as 790

---

protocol_details: Solubility of free C21 in aqueous vehicles (saturated solutions, HPLC)
Format: physicochemical
condition_context: PG/H2O (10:90), pH 7.5, aqueous with cosolvent or surfactant or cyclodextrin, thermodynamic from solid, vehicle PG/H2O (10:90); pH 7.5; read-out: Concentration (solubility)
quantity_measured: solubility at 48 h (µg/mL)
I only need the number, in µg/mL, no unit after it.

For CCCCOC(=O)NS(=O)(=O)c1sc(CC(C)C)cc1-c1ccc(Cn2ccnc2)cc1 [free C21] the molecule record lists solubility at 48 h as 220

---

protocol_details: Solubility of free C21 in aqueous vehicles (saturated solutions, HPLC)
Assay type: physicochemical
condition_context: PEG/EtOH/H2O (40:10:50), pH 6.1, aqueous with cosolvent or surfactant or cyclodextrin, thermodynamic from solid, vehicle PEG/EtOH/H2O (40:10:50); pH 6.1; read-out: Concentration (solubility)
quantity_measured: solubility at 48 h (µg/mL)
I only need the number, in µg/mL, no unit after it.

For CCCCOC(=O)NS(=O)(=O)c1sc(CC(C)C)cc1-c1ccc(Cn2ccnc2)cc1 [free C21] the compound record lists solubility at 48 h as 830

---

protocol_details: Solubility of free C21 in aqueous vehicles (saturated solutions, HPLC)
Type: physicochemical
condition_context: boric acid buffer pH 10.0, pH 8.7, aqueous buffer, thermodynamic from solid, vehicle Buffer/Boric acid pH 10.0; measured pH 8.7; read-out: Concentration (solubility)
quantity_measured: solubility at 48 h
Give me the value, and tack the unit on after it.

For CCCCOC(=O)NS(=O)(=O)c1sc(CC(C)C)cc1-c1ccc(Cn2ccnc2)cc1 [free C21] the molecule record lists solubility at 48 h as 19.1 mg/mL

---

protocol_details: Solubility of free C21 in aqueous vehicles (saturated solutions, HPLC)
Format: physicochemical
condition_context: 0.9% NaCl, pH 8.3, saline or isotonic, thermodynamic from solid, vehicle 0.9% NaCl; pH 8.3 adjusted by NaOH; one sample; read-out: Concentration (solubility)
Protocol: […] After 48 hours, pH was measured and thereafter 1 mL of solution was withdrawn. […] C21 content was measured by HPLC.
quantity_measured: solubility at 48 h (µg/mL)
I only need the number, in µg/mL, no unit after it.

For CCCCOC(=O)NS(=O)(=O)c1sc(CC(C)C)cc1-c1ccc(Cn2ccnc2)cc1 [free C21] the molecule record lists solubility at 48 h as 1580

---

protocol_details: Solubility of free C21 in aqueous vehicles (saturated solutions, HPLC)
Format: physicochemical
condition_context: 0.9% NaCl/EtOH 95:5 v/v, pH 7.9, aqueous with cosolvent or surfactant or cyclodextrin, thermodynamic from solid, vehicle 0.9% NaCl/EtOH 95:5 v/v; pH 7.9; one sample; read-out: Concentration (solubility)
quantity_measured: solubility at 48 h (µg/mL)
I only need the number, in µg/mL, no unit after it.

For CCCCOC(=O)NS(=O)(=O)c1sc(CC(C)C)cc1-c1ccc(Cn2ccnc2)cc1 [free C21] the molecule record lists solubility at 48 h as 570

---

protocol_details: Solubility of free C21 in aqueous vehicles (saturated solutions, HPLC)
Format: physicochemical
condition_context: PBS pH 7.4, pH 7.7, aqueous buffer, thermodynamic from solid, vehicle Buffer/PBS pH 7.4; measured pH 7.7; read-out: Concentration (solubility)
quantity_measured: solubility at 48 h (µg/mL)
I only need the number, in µg/mL, no unit after it.

For CCCCOC(=O)NS(=O)(=O)c1sc(CC(C)C)cc1-c1ccc(Cn2ccnc2)cc1 [free C21] the molecule record lists solubility at 48 h as 240
